# Ki against 5-hydroxytryptamine receptor 1B (Homo sapiens, UniProt P28222), merged from multiple literature sources
# Sequence (P28222 whole entry): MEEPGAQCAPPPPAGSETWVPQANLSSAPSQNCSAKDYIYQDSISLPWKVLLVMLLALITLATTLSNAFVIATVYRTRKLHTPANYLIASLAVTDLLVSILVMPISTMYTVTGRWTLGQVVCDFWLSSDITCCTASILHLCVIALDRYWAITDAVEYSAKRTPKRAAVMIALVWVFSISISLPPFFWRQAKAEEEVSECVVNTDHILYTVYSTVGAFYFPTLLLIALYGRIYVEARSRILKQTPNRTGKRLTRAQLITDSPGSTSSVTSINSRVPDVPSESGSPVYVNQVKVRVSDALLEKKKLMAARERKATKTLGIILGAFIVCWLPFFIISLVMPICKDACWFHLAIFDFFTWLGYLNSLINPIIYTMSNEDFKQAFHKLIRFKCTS
OBSERVATION TYPE: Ki (µM)

Record excerpt, results attached:
[
  {
    "COMPOUND": "O=C(Nc1cccc2ccccc12)N1CC=C(c2ccc3[nH]cc(CCN4CCCC4)c3c2)CC1",
    "OBSERVATION TYPE": "Ki",
    "UOM": "µM",
    "QUANTITATIVE RESULT": 0.065
  },
  {
    "COMPOUND": "CCC(=O)N1CCN(c2ccc(NC(=O)c3cc(=O)c4cc(F)cc(N5CCN(C)CC5)c4o3)cc2)CC1",
    "OBSERVATION TYPE": "Ki",
    "UOM": "µM",
    "QUANTITATIVE RESULT": 0.0017
  },
  {
    "COMPOUND": "CNC(=O)Nc1ccc2[nH]cc(C3CCN(C)CC3)c2n1",
    "OBSERVATION TYPE": "Ki",
    "UOM": "µM",
    "QUANTITATIVE RESULT": 0.014
  },
  {
    "COMPOUND": "CN1CCN([C@@H](COc2cccc(Cl)c2Cl)c2ccccc2)CC1",
    "OBSERVATION TYPE": "Ki",
    "UOM": "µM",
    "QUANTITATIVE RESULT": 0.833
  },
  {
    "COMPOUND": "CNC(C)COc1cccc(Cl)c1Cl (racemic)",
    "OBSERVATION TYPE": "Ki",
    "UOM": "µM",
    "QUANTITATIVE RESULT": 2.48
  }
]

[A] Cc1ccc2c(OCCN3CCC(Cc4ccc5c(c4)NC(=O)CO5)CC3)cc(Cl)cc2n1
[B] CN1CCC(c2c[nH]c3ccc(NC(=O)c4ccc([N+](=O)[O-])cc4)nc23)CC1
## Task Please state the entry with greater Ki among A and B . Answer = label.
## Result A

[A] COc1cc2c(cc1N1C[C@@H](C)N(C)[C@@H](C)C1)N(C(=O)c1ccc(-c3cccc(C)n3)c3ccccc13)CC2
[B] CC1(C)N=C(N)N=C(Nc2cccc(Br)c2)N1
## Task Just tell me: smaller Ki value, A or B ? Answer = label.
## Result A
(A: 0.00316 µM, B: 1.53 µM)

====

pKi: −log10 of the molar value.
# pKi against 5-hydroxytryptamine receptor 1B (Homo sapiens, UniProt P28222), merged from multiple literature sources
OBSERVATION TYPE: pKi

[
  {
    "COMPOUND": "COc1ccccc1N1CCC(C(=O)Nc2ccc(OC)c(N3CCN(C)CC3)c2)CC1",
    "OBSERVATION TYPE": "pKi",
    "QUANTITATIVE RESULT": 8.01
  },
  {
    "COMPOUND": "Cc1cc(C(=O)Nc2ccc(C)c(N3CCN(C)CC3)c2)ccc1Br",
    "OBSERVATION TYPE": "pKi",
    "QUANTITATIVE RESULT": 7.90
  },
  {
    "COMPOUND": "Cc1ccc2c(OCCN3CCC(Cc4cccc(N5CCN[C@@H](C)C5)c4)CC3)cccc2n1",
    "OBSERVATION TYPE": "pKi",
    "QUANTITATIVE RESULT": 7.80
  },
  {
    "COMPOUND": "Cc1ccc2c(OCCN3CCN(Cc4cccc5[nH]cnc45)CC3)cccc2n1",
    "OBSERVATION TYPE": "pKi",
    "QUANTITATIVE RESULT": 7.20
  }
]

[1] CN1CCC(n2ncc3ccc(NC(=O)c4ccc(F)cc4)cc32)CC1
[2] CC(=O)N(C)c1cccc(CC2CCN(CCOc3cccc4nc(C)ccc34)CC2)c1
[3] Cc1ccc2c(OCCN3CCN(Cc4ccc5c(c4)NC(=O)CO5)CC3)cccc2n1
[4] COc1ccc(CN2CCN(CCOc3cccc4nc(C)ccc34)CC2)cc1
## Task // ranking: key=pKi, reverse=True Dear reader, please state the labels in the requested order.
## Result 2, 3, 4, 1
